Taken from patent EP4707304A1.

# Tested Target: T1, VLP-hCLDN6 (human, UniProt P56747 1-220)
# T1 construct: also called VLP-CLDN6; AT-003-ag1
# T1 sequence: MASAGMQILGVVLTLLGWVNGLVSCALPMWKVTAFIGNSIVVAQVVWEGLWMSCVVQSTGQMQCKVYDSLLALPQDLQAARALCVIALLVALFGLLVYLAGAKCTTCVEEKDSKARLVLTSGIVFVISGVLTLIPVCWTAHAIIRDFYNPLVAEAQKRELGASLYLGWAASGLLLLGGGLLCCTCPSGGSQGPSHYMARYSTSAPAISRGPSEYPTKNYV
# Test Summary: ELISA, VLP-CLDN6 coated 400 ng/well, 4-fold serial dilution, HRP goat anti-human IgG Fc
pEC50: −log10 of the molar value.
We begin with a simple list: items and their reported pEC50.
Quantity: pEC50

binder="murine/human chimeric antibody cAb-3 (antibody, V domains shown, also called cAb-1 with S31D) VH: EVKLVESGGGLVKPGGSLKLSCAASGFTFNDYTMSWVRQTPAKRLEWVVTISSGGGRTYYPDSVKGRFTISRDNARNTLYLQMSSLRSEDTAMYYCIRGDYRYDGFAYWGQGTLVTVST VL: DIQMTQSPASLSASVGETVTITCRASENIDSYLAWYQQKQGKSPQLLVYASTLLVDGVPSRFSGSRSGTQFSLKINSLQSEDVARYYCQHYYSIPYTFGSGTKLEIK" quantitative_readout=9.59
binder="murine/human chimeric antibody cAb-2 (antibody, V domains shown, also called cAb-1 with S31E) VH: EVKLVESGGGLVKPGGSLKLSCAASGFTFNEYTMSWVRQTPAKRLEWVVTISSGGGRTYYPDSVKGRFTISRDNARNTLYLQMSSLRSEDTAMYYCIRGDYRYDGFAYWGQGTLVTVST VL: DIQMTQSPASLSASVGETVTITCRASENIDSYLAWYQQKQGKSPQLLVYASTLLVDGVPSRFSGSRSGTQFSLKINSLQSEDVARYYCQHYYSIPYTFGSGTKLEIK" quantitative_readout=9.28
binder="murine/human chimeric antibody cAb-1 (antibody, V domains shown, also called VH0/VL0) VH: EVKLVESGGGLVKPGGSLKLSCAASGFTFNSYTMSWVRQTPAKRLEWVVTISSGGGRTYYPDSVKGRFTISRDNARNTLYLQMSSLRSEDTAMYYCIRGDYRYDGFAYWGQGTLVTVST VL: DIQMTQSPASLSASVGETVTITCRASENIDSYLAWYQQKQGKSPQLLVYASTLLVDGVPSRFSGSRSGTQFSLKINSLQSEDVARYYCQHYYSIPYTFGSGTKLEIK" quantitative_readout=9.23
binder="murine/human chimeric antibody cAb-18 (antibody, V domains shown, also called cAb-1 with G100K) VH: EVKLVESGGGLVKPGGSLKLSCAASGFTFNSYTMSWVRQTPAKRLEWVVTISSGGGRTYYPDSVKGRFTISRDNARNTLYLQMSSLRSEDTAMYYCIRGDYRYDKFAYWGQGTLVTVST VL: DIQMTQSPASLSASVGETVTITCRASENIDSYLAWYQQKQGKSPQLLVYASTLLVDGVPSRFSGSRSGTQFSLKINSLQSEDVARYYCQHYYSIPYTFGSGTKLEIK" quantitative_readout=9.24
